# assay-explanation: GLP 28-day oral toxicity and toxicokinetics study
# Assay type: in vivo, Sprague Dawley rats
# run-parameters: female, Sprague Dawley, rat, in vivo, po, 300 mg/kg/day, Cmax
measurement-type: Cmax

Query: Cmax; subject: `NS(=O)(=O)c1ccc(Nc2ncc3cc4n(c3n2)C2(CCCCC2)C(=O)NN4)cc1`
3070 ng/mL

src = patent US20250199015A1
